- measurement_description: folding enthalpy; higher = less favourable; fluorescence melt of hairpins on a sequencing array, two-state fit
- details: sodium 0.088 M
Note that class boundaries on folding enthalpy are b0: < -30 kcal/mol; b1: ≥ -30 kcal/mol and < -20 kcal/mol; b2: ≥ -20 kcal/mol

INSERT INTO results (biosequence, assigned_label) VALUES
  ('GCTTCGCGAAAGCTTAGC (((..((....))..)))', 'b2'),
  ('GATCTGCGAACAGATC ((((((....))))))', 'b0'),
  ('GTAACCGGAAACGGCTAC (((.(((....))).)))', 'b1'),
  ('GGCCGTGGAAACGTGGCC ((((..(....)..))))', 'b0'),
  ('GCTCTATCGAAAGATAGC (((..(((....))))))', 'b2'),
  ('GCGTAGACGAAAGTCCGC (((..(((....))))))', 'b0'),
  ('GGGAACGAAAGTTCTCCC ((((((....)))..)))', 'b2'),
  ('GCCACCGGAAACGGTAGC ((.((((....)))).))', 'b1'),
  ('GGCAAAGCGAAAGCTGCC (((..(((....))))))', 'b0'),
  ('GACCGCGAAAGCGTGTC ((((((....))).)))', 'b1'),
  ('GGAGTGGGAAACCGCTTC (.((.((....)).)).)', 'b1'),
  ('GATCTACAATAGATC ((((((...))))))', 'b2');

Hey, just so you know, these numbers are from the array DNA melting data of Ke et al. (doi:10.1101/2024.01.08.574731).
